Task for the reader: assign each of the following compounds its reported Papp A→B at 120 min, 3 μM.
Assay: in vitro
Conditions: human, Caco-2, pH 7.4

compound: O=C(O)C1=C(CSc2cccc[n+]2[O-])CS[C@@H]2[C@H](NC(=O)/C(=N\Oc3ccccc3)c3ccco3)C(=O)N12
valueKind: Papp A→B at 120 min, 3 μM
valueMeasured: < 0.33 ×10⁻⁶ cm/s
--
compound: CN(C)C(=S)SCC1=C(C(=O)O)N2C(=O)[C@@H](NC(=O)Cc3cccs3)[C@H]2SC1
valueKind: Papp A→B at 120 min, 3 μM
valueMeasured: < 0.5 ×10⁻⁶ cm/s
--
compound: O=C(CCCC(NC(=O)c1ccc(Cl)cc1Cl)C(=O)O)N[C@@H]1C(=O)N2C(C(=O)O)=C(CSc3cccc[n+]3[O-])CS[C@H]12 (some centres unmarked)
valueKind: Papp A→B at 120 min, 3 μM
valueMeasured: < 0.43 ×10⁻⁶ cm/s
--
compound: O=C(Cc1cccs1)N[C@@H]1C(=O)N2C(C(=O)O)=C(CSc3cccc[n+]3[O-])CS[C@H]12
valueKind: Papp A→B at 120 min, 3 μM
valueMeasured: < 0.04 ×10⁻⁶ cm/s

Specify reported Papp A→B at 120 min, 3 μM for the compound shown: O=C(Cc1ccc(C2=NCCN2)cc1)N[C@@H]1C(=O)N2C(C(=O)O)=C(CSc3nncs3)CS[C@H]12
0.31 ×10⁻⁶ cm/s
